tested on: A498; test: NCI tumour cell line growth inhibition, 48 h
Active and inactive are the calls of the source. No stated cut-off is given here; in the data, active = GI50 up to about 1.1 µM and inactive = higher.
value.type: GI50

>>> result("COc1ccc(C(=O)C(C(=O)C(=O)Nc2ccc(Cl)c(Cl)c2)c2ccc(OC)cc2)cc1 (stereo not given)")
"> 100 µM (inactive)"
>>> result("CC(C)C(NCc1c2ccccc2[n+]([O-])c2ccccc12)C(=O)O (stereo not given)")
"> 100 µM (inactive)"
>>> result("COc1cc([C@@H]2OC(=O)C3C2C(=O)O[C@H]3c2ccc(O)c(OC)c2)ccc1O (stereo not given in full)")
"> 100 µM (inactive)"
>>> result("CN(O)C(=O)/C=C/c1ccc(OCc2cccc(Cl)c2)cc1")
"17 µM (inactive)"
>>> result("COc1ccccc1OCc1nnc(SCC(=O)O)n1-c1ccccc1")
"> 100 µM (inactive)"
>>> result("Nc1ccc(Oc2ccc(C3(c4ccc(Oc5ccc(N)c(O)c5)cc4)C4CC5CC(C4)CC3C5)cc2)cc1O")
"5.74 µM (inactive)"
>>> result("N=c1oc2ccccc2cc1C(=O)Nc1ccccn1")
"> 100 µM (inactive)"
>>> result("C[N+](C)(C)/C=N\\c1cccc2c1CCCC2")
"> 100 µM (inactive)"
>>> result("CCOC(=O)CC(NCc1ccc(/N=C/c2nc3ccc(C(F)(F)F)cc3nc2-c2ccccc2)cc1)C(=O)OCC (stereo not given)")
"> 61.1 µM (inactive)"
>>> result("OC[C@@H](O)[C@H](O)[C@@H](O)/C=N/Nc1ccc(Cl)nn1")
"> 100 µM (inactive)"
